Some compounds, each annotated with its measured NADPH fluorescence slope.
biological target: Voltage-gated potassium channel subunit beta-2 (Rattus norvegicus); test: enhancers of rat Kvbeta2 NADPH turnover – biochemical, NADPH fluorescence, primary screen (AID 623); settings: Recombinant KvBeta, NADPH fluorescence decrease slope, 10 min; at 10 µM; stronger effect = lower value;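 note: fluorescence intensity change per second fitted from 20 to 320 s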
No unit in the answer, only the number.

In the examples that follow, each entry is paired with its recorded NADPH fluorescence slope.
{"structure": "C=CCOc1nc(N2CCCC2)nc(N2CCCC2)n1", "NADPH fluorescence slope": "-8.3e-05"}
{"structure": "CCOC(=O)C1CCN(C(=O)Nc2ccc(Cl)cc2Cl)CC1", "NADPH fluorescence slope": "-4.6e-05"}
{"structure": "NS(=O)(=O)c1cc2c(cc1C(F)(F)F)NCNS2(=O)=O", "NADPH fluorescence slope": "-4.4e-05"}
{"structure": "N#Cc1cc2sc3nnc(-c4ccncc4)n3c2cc1C#N", "NADPH fluorescence slope": "1.4e-05"}
{"structure": "COc1ccc(-c2noc(CN3CCC(Cc4ccccc4)CC3)n2)cc1", "NADPH fluorescence slope": "6.3e-06"}

Now turn to the next compound.
Reported NADPH fluorescence slope of Cc1cc(-c2ccccc2)c2nncn2n1 : -1.4e-05
